These data points were gathered from patent US9745305B2.

Kindly state IC50 for each of the entries shown.
- STUDY_SYSTEM: Y641N EZH2 (Homo sapiens, UniProt Q15910, Y641N)
- Sequence (Q15910 whole entry Y641N): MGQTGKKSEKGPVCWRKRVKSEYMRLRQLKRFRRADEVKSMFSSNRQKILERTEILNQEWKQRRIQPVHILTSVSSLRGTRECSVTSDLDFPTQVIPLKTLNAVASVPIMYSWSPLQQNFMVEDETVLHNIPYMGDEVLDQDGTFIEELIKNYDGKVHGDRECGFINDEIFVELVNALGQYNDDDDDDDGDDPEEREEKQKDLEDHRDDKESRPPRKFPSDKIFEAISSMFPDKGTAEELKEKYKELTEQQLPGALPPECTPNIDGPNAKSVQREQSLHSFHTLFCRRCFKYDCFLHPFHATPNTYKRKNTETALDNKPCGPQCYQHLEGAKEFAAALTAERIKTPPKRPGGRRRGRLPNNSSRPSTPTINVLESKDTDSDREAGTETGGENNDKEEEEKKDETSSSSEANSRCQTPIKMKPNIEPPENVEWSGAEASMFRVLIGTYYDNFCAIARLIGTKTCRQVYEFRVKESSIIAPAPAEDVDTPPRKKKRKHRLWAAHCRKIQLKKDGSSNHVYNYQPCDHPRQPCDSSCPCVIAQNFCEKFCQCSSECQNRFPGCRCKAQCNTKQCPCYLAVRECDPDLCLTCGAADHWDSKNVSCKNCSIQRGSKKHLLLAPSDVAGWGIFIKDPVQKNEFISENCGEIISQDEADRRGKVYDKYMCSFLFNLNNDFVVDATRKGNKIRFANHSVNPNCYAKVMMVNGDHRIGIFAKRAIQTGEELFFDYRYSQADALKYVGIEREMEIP
- Sequence (O75530 whole entry partner): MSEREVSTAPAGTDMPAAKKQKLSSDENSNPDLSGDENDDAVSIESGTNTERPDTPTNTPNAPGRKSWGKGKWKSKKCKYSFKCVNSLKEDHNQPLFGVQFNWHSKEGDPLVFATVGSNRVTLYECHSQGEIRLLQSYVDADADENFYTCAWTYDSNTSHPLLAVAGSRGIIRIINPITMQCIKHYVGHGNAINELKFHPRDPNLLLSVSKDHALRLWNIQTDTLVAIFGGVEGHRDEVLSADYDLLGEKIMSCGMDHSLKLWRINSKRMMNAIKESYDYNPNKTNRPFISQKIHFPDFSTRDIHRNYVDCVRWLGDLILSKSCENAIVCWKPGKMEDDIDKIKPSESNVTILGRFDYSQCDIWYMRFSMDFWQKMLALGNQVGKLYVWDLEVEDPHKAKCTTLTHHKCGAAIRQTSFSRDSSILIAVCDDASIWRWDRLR
- Sequence (Q15022 whole entry partner): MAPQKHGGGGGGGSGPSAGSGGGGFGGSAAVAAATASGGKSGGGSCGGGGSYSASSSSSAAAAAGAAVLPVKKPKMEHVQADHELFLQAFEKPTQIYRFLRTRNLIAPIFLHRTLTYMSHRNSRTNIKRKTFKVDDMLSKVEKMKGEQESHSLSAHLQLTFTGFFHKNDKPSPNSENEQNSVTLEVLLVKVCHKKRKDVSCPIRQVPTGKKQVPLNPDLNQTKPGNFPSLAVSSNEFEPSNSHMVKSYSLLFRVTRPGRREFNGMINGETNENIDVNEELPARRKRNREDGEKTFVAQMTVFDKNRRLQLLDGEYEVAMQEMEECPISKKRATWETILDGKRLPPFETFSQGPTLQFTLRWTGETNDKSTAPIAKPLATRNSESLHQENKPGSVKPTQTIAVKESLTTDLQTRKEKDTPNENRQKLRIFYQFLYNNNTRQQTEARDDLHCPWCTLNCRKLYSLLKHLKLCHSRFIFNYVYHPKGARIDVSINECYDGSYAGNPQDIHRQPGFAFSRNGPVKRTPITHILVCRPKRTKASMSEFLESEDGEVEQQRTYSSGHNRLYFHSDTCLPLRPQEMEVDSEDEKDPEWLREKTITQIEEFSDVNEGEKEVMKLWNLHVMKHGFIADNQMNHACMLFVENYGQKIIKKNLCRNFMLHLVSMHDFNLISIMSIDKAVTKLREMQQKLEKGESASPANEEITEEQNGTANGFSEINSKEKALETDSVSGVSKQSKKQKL
- TEST_PROTOCOL: Assay for Y641N EZH2 (as the EZH2 assay, H3K27Me2 oligonucleosomes as substrate)
- CONDITION_PARAMETERS: Y641N EZH2 mutant, reconstituted H3K27Me2 oligonucleosomes as substrate

Which value of IC50 has been reported for CCS(=O)(=O)N1CCC(C(C)c2c(C)c(C(=O)NCc3c(OC)cc(C)[nH]c3=O)c3cnccn23)CC1 (racemic) [Compound 119] in the records?
< 100 nM

COc1cc(C)[nH]c(=O)c1CNC(=O)c1c(C)c(-c2c(C)cnn2C)n2ncccc12 [Compound 120] ?
100 to 1000 nM

COc1cc(C)[nH]c(=O)c1CNC(=O)c1c(C)c(C(C)c2cccn(C)c2=O)n2ncccc12 (racemic) [Compound 111] ?
1000 to 10000 nM

COc1cc(C)[nH]c(=O)c1CNC(=O)c1c(C)c(C(C)C2CCN(C(=O)C(F)(F)F)CC2)n2ncccc12 (stereo not shown) [Compound 139] ?
< 100 nM
